Field: pIC50. Provide a value for each of the molecules that follow.
target.desc: c-Kit(V654A) (Homo sapiens, UniProt P10721, V654A)
assay.explanation: c-Kit(V654A) assay
Assay type: biochemical
reported.conditions: Table 1; 200 μM ATP
Remember, pIC50 is on a log scale: it is -log10 of the molar concentration.

// Input: [2H]C1([2H])N(C(=O)c2ccc(-c3cc(-c4n[nH]c5cc(OCCOC)c(F)cc45)on3)cc2)C([2H])([2H])C([2H])([2H])N(C2COC2)C1([2H])[2H] . Output its pIC50 only.
9.00

Supply reported pIC50 belonging to this molecule: COCCOc1cc2[nH]nc(-c3cc(-c4ccc(-n5cncn5)cc4)no3)c2cc1Cl
8.06

Give me measured pIC50, please, for this molecule: COCCOc1cc2[nH]nc(-c3cc(-c4ccc(C(=O)N5CCC[C@H]5C(C)(C)O)cc4)no3)c2cc1F
9.26

Answer with reported pIC50 of COc1cc2[nH]nc(-c3cc(-c4ccc(C(=O)N5CC(N6CCOCC6)C5)cc4)no3)c2cc1F
8.26

Complete the entry with pIC50 for COCCOc1cc2[nH]nc(-c3cc(-c4ccc(C(=O)N5CC6(CCO6)C5)cc4)no3)c2cc1F
8.96

Tell us which pIC50 value is on record for COCCOc1cc2[nH]nc(-c3cc(-c4ccc(C(=O)N5CC(F)C5)nc4)no3)c2cc1F
7.82

// Input: COCCOc1cc2[nH]nc(-c3cc(-c4cccc(C(=O)N(C)C)c4)no3)c2cc1F . Output its pIC50 only.
8.31

Retrieve pIC50 measured for COCCOc1cc2[nH]nc(-c3cc(-c4ccc(C(=O)N5CCOC[C@@H]5CO)cc4)no3)c2cc1F and print it.
9.15

Query pIC50 for COCCOc1cc2[nH]nc(-c3cc(-c4ccc(C(=O)N5CC(c6ccncc6)C5)cc4)no3)c2cc1F
9.19

Report pIC50 for COCCOc1cc2[nH]nc(-c3cc(-c4ccc(C(=O)N5CCNCC5)cc4)no3)c2cc1F
9.02

Return the recorded pIC50 value; entry: COCCOc1cc2[nH]nc(-c3cc(-c4ccc(C(=O)N(C)C)nc4)no3)c2cc1F
8.16

Retrieve pIC50 measured for COCCOc1cc2[nH]nc(-c3cc(-c4ccc(C(=O)N5CCOC[C@@H]5CO)cc4)no3)c2cc1Cl and print it.
9.19

Identify measured pIC50 corresponding to COCCOc1cc2[nH]nc(-c3cc(-c4ccc(C(=O)N(C)CCS(C)(=O)=O)cc4)no3)c2cc1F
8.77

Entry COCCOc1cc2[nH]nc(-c3cc(-c4ccc(C(=O)N5CC[C@@H]5C(C)(C)O)nc4)no3)c2cc1F needs its pIC50 filled in; supply it.
7.92

Entry COCCOc1cc2[nH]nc(-c3cc(-c4ccc(C(=O)N5CC(N6CCS(=O)(=O)CC6)C5)cc4)no3)c2cc1F needs its pIC50 filled in; supply it.
8.72

Provide only the value of recorded pIC50 for COCCOc1cc2[nH]nc(-c3cc(-c4ccc(C(=O)N5C[C@H]6COC[C@H]6C5)cc4)no3)c2cc1F
8.96

Dear colleague, please send me the reported pIC50 for COCCOc1cc2[nH]nc(-c3cc(-c4ccc(C(=O)N5CCC[C@H]5CNS(C)(=O)=O)cc4)no3)c2cc1F when you can.
9.33
